- Target Or System: Human Cav3.1 calcium channel (Homo sapiens)
- Construct: expressed in transfected cells; host or cells: HEK-293 natClytin/TASK1+Cav3.1 cell line
- Sequence (O43497 whole entry): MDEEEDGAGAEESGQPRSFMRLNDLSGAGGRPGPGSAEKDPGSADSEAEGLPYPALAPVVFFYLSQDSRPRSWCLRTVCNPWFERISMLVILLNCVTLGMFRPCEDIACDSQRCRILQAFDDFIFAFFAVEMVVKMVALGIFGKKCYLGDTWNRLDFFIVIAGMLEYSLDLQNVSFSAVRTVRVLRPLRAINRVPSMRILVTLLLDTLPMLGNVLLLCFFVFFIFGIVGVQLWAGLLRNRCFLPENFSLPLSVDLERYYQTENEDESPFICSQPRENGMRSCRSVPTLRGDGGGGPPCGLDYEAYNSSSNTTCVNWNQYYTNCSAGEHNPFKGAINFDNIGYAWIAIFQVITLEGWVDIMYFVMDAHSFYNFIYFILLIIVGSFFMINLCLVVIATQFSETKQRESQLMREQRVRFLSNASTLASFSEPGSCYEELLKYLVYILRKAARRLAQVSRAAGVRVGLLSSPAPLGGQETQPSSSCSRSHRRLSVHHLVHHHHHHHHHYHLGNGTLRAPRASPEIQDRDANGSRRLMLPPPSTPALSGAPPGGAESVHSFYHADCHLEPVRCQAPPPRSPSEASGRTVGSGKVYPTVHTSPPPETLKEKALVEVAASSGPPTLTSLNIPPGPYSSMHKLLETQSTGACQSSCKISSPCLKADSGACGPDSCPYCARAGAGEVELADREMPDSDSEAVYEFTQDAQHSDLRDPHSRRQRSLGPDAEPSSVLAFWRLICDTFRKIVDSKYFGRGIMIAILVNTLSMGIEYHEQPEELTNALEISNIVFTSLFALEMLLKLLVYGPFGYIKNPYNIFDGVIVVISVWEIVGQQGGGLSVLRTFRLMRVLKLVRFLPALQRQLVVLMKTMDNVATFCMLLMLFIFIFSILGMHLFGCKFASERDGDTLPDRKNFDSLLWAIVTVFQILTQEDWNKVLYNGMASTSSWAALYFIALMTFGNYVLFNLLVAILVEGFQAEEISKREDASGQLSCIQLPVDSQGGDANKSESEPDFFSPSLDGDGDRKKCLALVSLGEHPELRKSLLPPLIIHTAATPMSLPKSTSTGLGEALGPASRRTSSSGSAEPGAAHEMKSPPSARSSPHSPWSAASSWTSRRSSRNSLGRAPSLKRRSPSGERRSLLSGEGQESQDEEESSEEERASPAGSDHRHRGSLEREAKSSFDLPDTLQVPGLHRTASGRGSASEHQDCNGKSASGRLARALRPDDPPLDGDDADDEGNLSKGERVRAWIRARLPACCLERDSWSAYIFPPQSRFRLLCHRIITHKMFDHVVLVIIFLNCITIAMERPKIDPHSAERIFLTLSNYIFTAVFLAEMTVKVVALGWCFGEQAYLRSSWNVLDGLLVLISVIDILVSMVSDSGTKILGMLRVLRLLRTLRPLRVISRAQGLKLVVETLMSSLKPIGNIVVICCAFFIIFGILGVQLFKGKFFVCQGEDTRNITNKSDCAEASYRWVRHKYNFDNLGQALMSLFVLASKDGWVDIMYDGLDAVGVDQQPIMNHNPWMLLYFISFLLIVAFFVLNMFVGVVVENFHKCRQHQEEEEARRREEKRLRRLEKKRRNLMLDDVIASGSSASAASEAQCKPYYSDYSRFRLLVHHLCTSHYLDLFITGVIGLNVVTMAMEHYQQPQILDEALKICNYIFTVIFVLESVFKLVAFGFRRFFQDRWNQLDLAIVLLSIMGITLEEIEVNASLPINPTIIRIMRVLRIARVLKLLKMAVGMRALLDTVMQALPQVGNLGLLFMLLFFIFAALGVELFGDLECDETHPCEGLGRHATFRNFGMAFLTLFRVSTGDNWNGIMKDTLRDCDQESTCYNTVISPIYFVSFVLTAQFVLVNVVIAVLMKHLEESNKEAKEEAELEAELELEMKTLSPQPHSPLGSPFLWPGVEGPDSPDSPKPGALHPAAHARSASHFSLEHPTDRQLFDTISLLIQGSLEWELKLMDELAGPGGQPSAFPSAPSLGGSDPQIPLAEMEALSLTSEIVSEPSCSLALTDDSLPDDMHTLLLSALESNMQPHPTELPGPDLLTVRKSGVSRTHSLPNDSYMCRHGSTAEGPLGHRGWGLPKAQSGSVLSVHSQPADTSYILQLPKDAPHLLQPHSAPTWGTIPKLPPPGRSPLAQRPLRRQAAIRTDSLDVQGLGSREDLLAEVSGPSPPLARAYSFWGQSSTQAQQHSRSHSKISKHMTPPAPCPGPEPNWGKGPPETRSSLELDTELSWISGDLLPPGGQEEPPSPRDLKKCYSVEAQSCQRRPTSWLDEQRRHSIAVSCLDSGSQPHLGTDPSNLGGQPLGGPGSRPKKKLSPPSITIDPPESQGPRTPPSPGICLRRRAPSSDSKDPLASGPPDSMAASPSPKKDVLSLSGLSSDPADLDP
- Protocol Summary: Human Cav3.1 calcium channel patch clamp assay (SyncroPatch 384PE; single point and IC50, voltage dependent block)
- Type: cell-based
- Reported Conditions: Testing Conc 1.25; HEK-293 natClytin/TASK1+Cav3.1 cell line, patch clamp
Quantity Measured: % Inhibition (Single Point Data) (%)
Give the value in % but do not write % after it.

Suppose we examine the molecule `CN(C(=O)CN1C2CC1CN(Cc1nc3c(Cl)cc(F)cc3[nH]1)C2)C(C)(C)C` ; what % Inhibition (Single Point Data) value has been reported? 96.57

May I ask what % Inhibition (Single Point Data) has been recorded for `O=C(CN1CC2CC(C1)N2CCNC(=O)C1(C(F)(F)F)CC1)Nc1cc(F)cc(Cl)c1` ? 98.914

Which measured % Inhibition (Single Point Data) value corresponds to `Fc1cc(Cl)c2nc(CN3CCN(Cc4ccc5c(c4)OCCO5)CC3)[nH]c2c1` ? 87.04

I'd like to know its % Inhibition (Single Point Data). The molecule in question is `O=C(CN1CC2CC(C1)N2CCC1CCOCC1)NC12CC3CC(CC(C3)C1)C2` 11.934

Any idea what % Inhibition (Single Point Data) was measured for `CC1(CN2C3CC2CN(Cc2nc4c(Cl)cc(F)cc4[nH]2)C3)CCOCC1` ? 52.218

----------
- Target Or System: Human Cav3.1 calcium channel (Homo sapiens)
- Construct: expressed in transfected cells; host or cells: HEK-293 natClytin/TASK1+Cav3.1 cell line
- Protocol Summary: Human Cav3.1 calcium channel patch clamp assay (SyncroPatch 384PE; single point and IC50, voltage dependent block)
- Type: cell-based
- Reported Conditions: Testing Conc 1.25; HEK-293 natClytin/TASK1+Cav3.1 cell line, patch clamp
# % Inhibition (Single Point Data) per record follows
Write the quantity with the unit trailing the number.

Answered cases to consult:
CC(C)(C)NC(=O)CN1C2CC1CN(C(=O)NC13CC4CC(CC(C4)C1)C3)C2 [Compound 303]: 23.993%
CC(C)(C)S(=O)(=O)CCN1C2CC1CN(CC(=O)Nc1cc(F)cc(Cl)c1)C2 [Compound 50]: 57.816%
CC(C(=O)Nc1ccc(F)c(Cl)c1)N1CC2CC(C1)N2CC(=O)NC1(C(F)(F)F)CC1 (centres unmarked) [Compound 30]: 63.42%
CC(C(=O)NC(C)(C)C)N1C2CC1CN(CC(=O)Nc1ccc(F)c(OC(F)F)c1)C2 (centres unmarked) [Compound 254]: 93.503%
CC(C)(C)NC(=O)CN1C[C@H]2C[C@@H]1CN2CC(=O)Nc1ccc(F)c(OC(F)F)c1 [Compound 246]: 49.246%

Find the recorded % Inhibition (Single Point Data) belonging to CC(C)(C)NC(=O)CN1C2CCC1CN(Cc1nc3c(C(F)F)cccc3[nH]1)C2 [Compound 202] and report it. 100.89%

What measured % Inhibition (Single Point Data) goes with Fc1cc(Cl)c2nc(CN3CC4CCC(C3)N4CCOC3CCCCC3)[nH]c2c1 [Compound 95] ? 100.41%

Please look up its % Inhibition (Single Point Data): CC1(CCN2C3CC2CN(Cc2nc4c(Cl)cc(F)cc4[nH]2)C3)CCC1 [Compound 109] 98.531%
